Test system: NCI-H322M lung
Experiment: NCI-60 one-dose screen, 48 h
Conditions: 10 µM unless noted
Experimental: Growth inhibition of the NCI-H322M human Non-Small Cell Lung tumor cell line is measured as a screen for anti-cancer activity. Cells are grown in 96 well plates and exposed to the test compound for 48 hours. Compounds are tested at a single concentration, which is 10^-5 M for most compounds. The reported endpoint is percent growth (GI% or GIPRCNT), where numbers from 0 - 100% represent growth inhibition, and numbers from -100% - 0 represent cell death. […]
Compounds without any hit were thinned out: in the full panel of roughly 83,000, 20% have a hit. The source made the active and inactive calls. Rule for the calls: active = growth percent below 10; inactive = the rest.
Output constraint: value belongs to YES (active), NO (inactive)

Look over these answered cases.
Cc1ccc(SCN2CCN(c3cccc(Cl)c3)CC2)cc1 ... NO
COc1ccc(/C=c2/c(=O)[nH]c3nc4sc(C)c(C)c4c(=O)n23)cc1 ... NO
COC1/C=C\OC2(C)Oc3c(C)c(O)c4c(O)c(c(CN(C)CCO)c(O)c4c3C2=O)NC(=O)/C(C)=C\C=C/C(C)C(O)C(C)C(O)C(C)C(OC(C)=O)C1C (stereo not drawn) ... NO
O=C(NCc1cccc(C(F)(F)F)c1)[C@H](CCC(=O)N1CCN(C2CCCCC2)CC1)N1C(=O)[C@@H](N2C(=O)OC[C@@H]2c2ccccc2)[C@H]1/C(Cl)=C/c1ccccc1 ... NO
O=C1/C(=C/c2ccc(F)cc2)CN(C(=O)CCN2CCC(=NO)CC2)C/C1=C\c1ccc(F)cc1 ... YES

Please share the test call associated with `O=C(/C=C/c1ccc(Cl)cc1)/C=C/c1cc2ccccc2[nH]c1=O` . NO

Please share the test call associated with `Nc1cc2nc3ccccc3sc-2cc1=O` . NO

Please share the test call associated with `O=C(CCN1CCOCC1)Nc1ccc(Cn2nnc3c2C(=O)c2nnn(Cc4ccc(NC(=O)CCN5CCOCC5)cc4)c2C3=O)cc1` . NO

---

test system: RPMI-8226 leukemia; assay: NCI-60 one-dose screen, 48 h; conditions: 10 µM unless noted
Compounds without any hit were thinned out: in the full panel of roughly 83,000, 20% have a hit. Active and inactive are the calls of the source. The calls were made as follows: active = growth percent below 10; inactive = the rest.
Output constraint: value belongs to active, inactive

Look over these answered cases.
CCc1ccc(C(c2ccc(CC)cc2)C(Cl)(Cl)CCl)cc1 ... inactive
CC(=O)/C(=C/c1cccc(Cl)c1)C(=O)c1ccccc1 ... inactive
S=c1[nH]nc(CSc2ncnc3c2c(-c2ccccc2)cn3-c2ccc(Cl)cc2)o1 ... inactive
O=C(CNC1C2CC3CC(C2)CC1C3)Sc1nnc2sc3ccccc3n12 (centres undefined) ... inactive
CCn1cc2c(cc1=O)-c1nc3ccccc3c3ccnc(c13)C2=O ... inactive
CN(C)c1ccc(/C=C(\C#N)c2nc3ccccc3s2)cc1 ... inactive

Please share the test call associated with `COc1cc2cc(COc3nccc(-c4ccc(Cl)cc4)n3)c(=O)[nH]c2cc1OC` . active

Please share the test call associated with `CCCCCCCCCCCCCCCCNCCC[C@@H](C)[C@H]1CC[C@H]2[C@@H]3[C@H](OCCCN)C[C@@H]4C[C@H](OCCCN)CC[C@]4(C)[C@H]3C[C@H](OCCCN)[C@]12C` . active

Please share the test call associated with `COc1ccc(-c2cc(/C=C3\C(=O)Nc4ccc(Cl)cc43)[nH]n2)cc1` . inactive
